# Lookup of reported growth keyed by entry
Test system: SNB-19 CNS
Experiment: NCI-60 one-dose screen, 48 h (100 = growth as untreated, 0 = no growth, -100 = all killed)
Conditions: 10 µM unless noted
About 83,000 compounds went through this panel and 20% of them were active in at least one assay; those are over-represented in the sample as a whole.
Record the value in %, omitting the unit from your answer.

CC(C)(O)c1cncc(-c2ccc3ncnc(N4CCc5cc(F)c(Cl)cc54)c3c2)c1: 25.2

Prompt: What growth value was documented for this compound, `C[C@@H]1CN(c2ccc3ncc(C#Cc4cncc(C(=O)Nc5ccc(CN6CCN(C)CC6)c(C(F)(F)F)c5)c4)n3n2)C[C@H](C)O1` ?
Completion: -4.76

Prompt: Now give it for `CNC(=O)c1cc(-c2ccc(NC(=O)Nc3ccc(N4CCN(C)CC4)c(C(F)(F)F)c3)cc2)nc2cccnc12` too.
Completion: -79.4

Prompt: Now give it for `OC1CCN(CCCOc2c3ccccc3nc3c2oc2ccccc23)CC1` too.
Completion: 0.345

Prompt: Now give it for `CCN1CCN(S(=O)(=O)c2oc(-c3ccc(Cl)cc3)nc2C#N)CC1` too.
Completion: 95.8

Prompt: Now give it for `COc1ccc(/C=C/C(=O)c2ccc(NC(=O)CSc3nnc(-c4ccc5nc(-c6ccc(Cl)cc6)[nH]c5c4)o3)cc2)cc1` too.
Completion: 106

Prompt: Now give it for `O=C(CCN1C(=O)/C(=C/c2ccccc2F)SC1=S)N1CCOCC1` too.
Completion: 99

Prompt: Now give it for COC1CCN(Cc2ccc3c(NNC(=O)c4cnccn4)nc4cc(F)ccc4n23)C1 (configuration not stated) too.
Completion: 36.1

Prompt: Now give it for `N#Cc1nc(-c2ccccc2)oc1S(N)(=O)=O` too.
Completion: 95.3

* * *

Test system: UACC-257 melanoma
Assay: NCI-60 one-dose screen, 48 h
Conditions: 10 µM unless noted
About 83,000 compounds went through this panel and 20% of them were active in at least one assay; those are over-represented in the sample as a whole. Activity calls are given as the source filed them. Rule for the calls: active = growth percent below 10; inactive = the rest.
Please reply with one of these outcomes: active, inactive

Answered cases to consult:
c1ccc2c(NCCCN3CCOCC3)c3oc4ccccc4c3nc2c1: active
CS(=O)(=O)c1ccc(-c2nc3ccccn3c2/C=N/Nc2nc(-c3ccc(Cl)cc3)cs2)cc1: inactive
COc1cc(/C=C/C(=O)c2cc(OC)c(OC)c(OC)c2)ccc1OCc1ccccc1: inactive
CN1CCN(Cc2ccc(NC(=O)c3cncc(C#Cc4cnc5ccc(N6CCSCC6)nn45)c3)cc2C(F)(F)F)CC1: inactive
COc1cccc(-c2nn(-c3ccccc3)cc2-c2ccnc(N3CCN(C(=O)Nc4ccc(F)cc4)CC3)c2)c1: inactive

Prompt: Please share the test call associated with `CN1CCN(Cc2ccc(NC(=O)c3cncc(C#Cc4cnc5[nH]ncc5c4)c3)cc2C(F)(F)F)CC1` .
Completion: inactive

Prompt: Now give it for `Nc1cc(-c2c[nH]c3ccc(F)cc23)nc2cc(-c3c[nH]c4ccc(F)cc34)nn12` too.
Completion: inactive

Prompt: Now give it for `O=C(O)CCCCCN1C(=O)/C(=C/c2ccc(O)c(O)c2)SC1=S` too.
Completion: inactive

* * *

Test system: SK-MEL-5 melanoma
Test: NCI-60 one-dose screen, 48 h
Conditions: 10 µM unless noted
About 83,000 compounds went through this panel and 20% of them were active in at least one assay; those are over-represented in the sample as a whole. Active and inactive are the calls of the source. The calls were made as follows: active = growth percent below 10; inactive = the rest.
Please reply with one of these outcomes: active, inactive

Answered cases to consult:
O=C1Nc2cc(Cl)ccc2/C1=C\c1ccc(OCc2ccc(Br)cc2F)cc1: active
Cc1cc(C(NC(=O)CCCCCNc2cccc3c2C(=O)N(C2CCC(=O)NC2=O)C3=O)c2cccnc2)c(O)c2ncccc12 (stereo unspecified): active
OC1CCN(CCCOc2c3ccccc3nc3c2oc2ccc(Cl)cc23)CC1: inactive
CN(C)c1ccc(/C=C2\Cc3c(F)ccc(Br)c3C2=O)cc1: inactive
Nc1c(C(=O)Nc2ccc(C(F)(F)F)cc2)sc2nc(-c3cnccn3)cc(-c3cccs3)c12: inactive

Prompt: Please share the test call associated with `CS(=O)(=O)c1ccc(-c2nc3ccccn3c2C=Nc2ccc(Cl)cc2)cc1` .
Completion: inactive

Prompt: Now give it for `COc1ccc(-c2nn3c(-c4ccccc4F)nnc3s2)cc1` too.
Completion: inactive

Prompt: Now give it for `O=C(CSc1nccc(=O)[nH]1)Nc1ccc(-c2nc3ccccc3[nH]2)cc1` too.
Completion: inactive

* * *

# Lookup of reported growth keyed by entry
Tested on: RPMI-8226 leukemia
Assay: NCI-60 one-dose screen, 48 h (100 = growth as untreated, 0 = no growth, -100 = all killed)
Settings: 10 µM unless noted
Compounds without any hit were thinned out: in the full panel of roughly 83,000, 20% have a hit.
Record the value in %, omitting the unit from your answer.

Prompt: What growth value was documented for this compound, COC(=O)C(C)NS(=O)(=O)/N=C1\NC(=O)NC1=C(Cl)Cl (stereo unspecified) ?
Completion: 104

Prompt: Now give it for `Cn1cc(-c2cc(N)n3nc(-c4cn(C)c5ccc(Br)cc45)cc3n2)c2cc(Br)ccc21` too.
Completion: 64.3

Prompt: Now give it for `CC(C)(O)c1cncc(-c2ccc3ncnc(N4CCc5cc(F)c(Cl)cc54)c3c2)c1` too.
Completion: 6.02

Prompt: Now give it for `Clc1ccc2c(NCCCn3ccnc3)c3oc4ccc(Cl)cc4c3nc2c1` too.
Completion: 82.8

Prompt: Now give it for `COc1ccc(-c2nc3ccc(-c4nnc(SCC(=O)Nc5ccc(C(=O)/C=C/c6ccc(Cl)cc6)cc5)o4)cc3[nH]2)cc1OC` too.
Completion: 75.5

Prompt: Now give it for CCN1C(=S)N(CC)C2C1N=C(SC)N2/N=C/C=C/c1ccccc1[N+](=O)[O-] (stereo unspecified) too.
Completion: 83.4

Prompt: Now give it for O=C(c1ccc(O)cc1)C1[C@H](c2ccc(Cl)cc2)[C@@H](c2ccccc2)NC12C(=O)Nc1ccc(Cl)cc12 (stereo partly specified) too.
Completion: 26.4

* * *

Tested on: HOP-92 NSCLC
Assay: NCI-60 one-dose screen, 48 h
Settings: 10 µM unless noted
The panel holds about 83,000 compounds, 20% with a hit somewhere; the sample as a whole holds those more often. Activity calls are given as the source filed them. The calls were made as follows: active = growth percent below 10; inactive = the rest.
Please reply with one of these outcomes: active, inactive

Prompt: Please share the test call associated with `Cc1ccc2c(n1)C(=O)C(Cl)=C(Nc1cccc(C(C)C)c1)C2=O` .
Completion: inactive

Prompt: Now give it for O=C1NC(=C(Cl)Cl)/C(=N/S(=O)(=O)N2CCCCC2CC2(C(F)(F)F)N=N2)N1 (stereo not drawn) too.
Completion: active

Prompt: Now give it for `COc1cccc(OC)c1-c1nnn(C)c1C(=S)N1CCN(c2ccc([N+](=O)[O-])cc2Cl)CC1` too.
Completion: inactive

* * *

Tested on: SK-OV-3 ovarian
Assay: NCI-60 one-dose screen, 48 h (100 = growth as untreated, 0 = no growth, -100 = all killed)
Conditions: 10 µM unless noted
Experimental: Growth inhibition of the SK-OV-3 human tumor cell line is measured as a screen for anti-cancer activity. Cells are grown in 96 well plates and exposed to the test compound for 48 hours. Compounds are tested at a single concentration, which is 10^-5 M for most compounds. The reported endpoint is percent growth (GI% or GIPRCNT), where numbers from 0 - 100% represent growth inhibition, and numbers from -100% - 0 represent cell death. For example, a value of 40 represents 60% growth inhibition. […]
The panel holds about 83,000 compounds, 20% with a hit somewhere; the sample as a whole holds those more often.
# Lookup of reported growth keyed by entry
Record the value in %, omitting the unit from your answer.

Previously resolved entries follow.
Clc1ccc2c(NCCCN3CCOCC3)c3oc4ccccc4c3nc2c1: 97.6
Cn1cc(-c2cc(N)n3nc(-c4cn(C)c5ccc(Br)cc45)cc3n2)c2cc(Br)ccc21: 110
COc1ccc(/C=N/Nc2ccnc3cc(Cl)ccc23)cc1Cl: 123
C/C(=N/NC(N)=S)c1ccc(Nc2nc(SCC(C)C)nc(-c3ccc(F)cc3)c2C#N)cc1: 28.9

Prompt: What growth value was documented for this compound, `NC(=O)c1cc(-c2ccc3ncnc(N4CCc5cc(F)c(Cl)cc54)c3c2)cnc1N` ?
Completion: 35.9

* * *

Tested on: NCI-H522 lung
Experiment: NCI-60 one-dose screen, 48 h
Conditions: 10 µM unless noted
This is part of a sample that, as a whole, favours compounds with a hit. Of some 83,000 tested, about 20% had one in any assay. Active and inactive are the calls of the source. How the source made its calls: active means growth percent below 10; inactive means the rest.
Please reply with one of these outcomes: Yes for active, No for inactive

Prompt: Please share the test call associated with `CCOC(=O)c1sc(N)c(C(=O)OCC)c1C` .
Completion: No

Prompt: Now give it for `Cc1nc(-c2cc3ccccc3oc2=O)ccc1C(=O)/C=C/c1ccccn1` too.
Completion: No

Prompt: Now give it for `CCOC(=O)c1c(Nc2ccccc2)nn2c(N)c(C#N)c(-c3ccccc3)nc12` too.
Completion: No

Prompt: Now give it for `CC(C)(C)Nc1nc2c(OCCc3ccccc3)cccn2c1-c1ccccc1Cl` too.
Completion: Yes

Prompt: Now give it for `O=C1[C@H]2Cc3c([nH]c4ccccc34)[C@@H](c3ccc(Br)cc3)N2C(=O)CN1C1CCN(Cc2ccccc2)CC1` too.
Completion: Yes

Prompt: Now give it for `COc1cccc(-c2nn(-c3ccccc3)cc2-c2ccnc(N3CCN(C(=O)c4ccccc4)CC3)c2)c1` too.
Completion: No
